Read-out: Cytochrome P450 (CYP1A1), CYP1A1 (gene 1543)
Protocol details: LTEA_HepaRG_CYP1A1: Life Technologies and Expression Analysis (LTEA) Assay for Cytochrome P450 (CYP1A1) using HepaRG (AID 2283454)
Recorded conditions: mRNA level, 48 h; actives raise or lower the signal
Active and inactive are the calls of the source. How the source made its calls: active means hit-call score of the fitted dose curve at least 0.9, where 1 is the maximum; inactive means score below 0.9.
Respond using exactly one of the listed classes: 1.0 = active, 0.0 = inactive

Here are 2 molecules together with their reported answers.
# Molecule, Label class
data = [
    ("c1ccc2c(c1)Cc1ccccc1-2", 1.0),
    ("CCC(=C(c1ccc(O)cc1)c1ccc(OCCN(C)C)cc1)c1ccccc1", 1.0),
]

Asked: I would be grateful if you could indicate the recorded call for N#C[C@@H]1CC(F)(F)CN1C(=O)CNC1CC2CCC(C1)N2c1ncccn1 (stereo partly drawn) .
Given back: 1.0

Asked: Test call for this molecule, please: "OC1CCCCC1"
Given back: 0.0

Asked: // param item: "c1ccc2c(c1)ccc1ccccc12" ; yields the recorded call
Given back: 1.0

Asked: Short answer needed: outcome of this test for COCC(C)O (stereo not drawn) ?
Given back: 0.0

Asked: So what was the verdict on CCCCC(CC)COC(=O)CCCCC(=O)OCC(CC)CCCC (stereo not drawn) in this test?
Given back: 0.0

Asked: Recorded test call requested for "Cc1cc(CCN2CCN(c3nsc4ccccc34)CC2)cc2c1NC(=O)CC2(C)C"
Given back: 1.0

Asked: Record request — test call for NC(=O)N1C(=O)C(C(=O)c2cc(Cl)cs2)c2cc(F)c(Cl)cc21 (stereo not drawn)
Given back: 1.0

Asked: Would you mind telling me which call this test gave CCc1nn(C2CCCCC2)c2cc(C3(C#N)CCC(C(=O)O)CC3)ccc12 (stereo not drawn) ?
Given back: 1.0

Asked: Tell me the assay call for "O=C(O)c1ccccc1C(c1ccc(O)cc1)c1ccc(O)cc1" please.
Given back: 0.0

Asked: How was "CCOC(=O)CC(O)(CC(=O)OCC)C(=O)OCC" classified in this test?
Given back: 0.0

Asked: Could you please tell me the result logged for "OCCC(F)(F)C(F)(F)C(F)(F)C(F)(F)C(F)(F)C(F)(F)C(F)(F)C(F)(F)F" in this assay?
Given back: 0.0

Origin of measurements: PubChem BioAssay (EPA / NIEHS)
